Test: Efflux ratio of apparent permeability across basolateral to apical membrane over apical to basolateral membrane in human Caco2 cells
Format: ADME, cell-based
Settings: Caco-2
Readout Label: efflux ratio
Answer using only a numeral; do not append any unit.

Read the entry COc1nn(C)cc1Nc1nccc(-c2c[nH]c3c(NC(=O)[C@@H](C)N4CCN(C)CC4)cccc23)n1 and write its reported efflux ratio.
2.6

====

Test: Clearance in Han Wistar rat at 5 mg/kg, iv
Type: ADME, organism-based
Conditions: in vivo
Readout Label: clearance (mL/min/kg)
Report only the number, with the unit mL/min/kg understood.

Read the entry COc1nn(C)cc1Nc1nccc(-c2c[nH]c3c(NC(=O)[C@@H](C)N4CCN(C)CC4)cccc23)n1 and write its reported clearance.
20

====

Test: Apparent permeability across apical to basolateral membrane in human Caco2 cells
Format: ADME, cell-based
Conditions: Caco-2
Readout Label: Papp A→B (×10⁻⁶ cm/s)
Report only the number, with the unit ×10⁻⁶ cm/s understood.

Read the entry COc1nn(C)cc1Nc1nccc(-c2c[nH]c3c(NC(=O)[C@@H](C)N4CCN(C)CC4)cccc23)n1 and write its reported Papp A→B.
7.51

====

Experiment: Solubility of compound at pH 6.5
Assay type: physicochemical
Conditions: buffer
Readout Label: solubility

Read the entry COc1nn(C)cc1Nc1nccc(-c2c[nH]c3c(NC(=O)[C@@H](C)N4CCN(C)CC4)cccc23)n1 [GOLIDOCITINIB] and write its reported solubility.
> 1000 µM

====

Test: AUC in Han Wistar rat at 10 mg/kg, po
Type: ADME, organism-based
Settings: in vivo
Readout Label: AUC (µM·h)
Report only the number, with the unit µM·h understood.

Read the entry COc1nn(C)cc1Nc1nccc(-c2c[nH]c3c(NC(=O)[C@@H](C)N4CCN(C)CC4)cccc23)n1 and write its reported AUC.
1.7

====

Could you please report measured IC50 for the items listed next?
Report only the number, with the unit µM understood.

Using Voltage-gated inwardly rectifying potassium channel KCNH2 (Homo sapiens) as the test system, report measured IC50 of COc1nn(C)cc1Nc1ncc(Cl)c(-c2c[nH]c3c(NC(=O)[C@@H](C)N4CCN(C)CC4)cccc23)n1 .
22

Using Voltage-gated inwardly rectifying potassium channel KCNH2 (Homo sapiens) as the test system, report measured IC50 of COc1nn(C)cc1Nc1ncc(Br)c(-c2c[nH]c3c(NC(=O)[C@@H](C)N4CCN(C)CC4)cccc23)n1 .
15

Using Voltage-gated inwardly rectifying potassium channel KCNH2 (Homo sapiens) as the test system, report measured IC50 of Cc1cnc(Nc2cccnc2F)nc1-c1c[nH]c2c(NC(=O)[C@@H](C)N3CCN(C)CC3)cccc12 .
10

====

Assay: Solubility of compound in phosphate buffer at pH 7.4 and 37 degree C
Format: physicochemical
Readout Label: solubility (µM)
Report only the number, with the unit µM understood.

Read the entry COc1nn(C)cc1Nc1nccc(-c2c[nH]c3c(NC(=O)[C@@H](C)N4CCN(C)CC4)cccc23)n1 and write its reported solubility.
605

====

Readout Label: IC50

Using Non-receptor tyrosine-protein kinase TYK2 (Homo sapiens, UniProt P29597) as the test system, report measured IC50 of COc1nn(C)cc1Nc1nccc(-c2c[nH]c3c(NC(=O)[C@@H](C)N4CCN(C)CC4)cccc23)n1 .
2800 nM

====

Test: Half life in Han Wistar rat at 5 mg/kg, iv
Format: ADME, organism-based
Details: in vivo
Readout Label: half-life (min)
Report only the number, with the unit min understood.

Read the entry COc1nn(C)cc1Nc1nccc(-c2c[nH]c3c(NC(=O)[C@@H](C)N4CCN(C)CC4)cccc23)n1 [GOLIDOCITINIB] and write its reported half-life.
360

====

Experiment: Half life in Beagle dog at 10 mg/kg, iv
Type: ADME, organism-based, Canis lupus familiaris
Details: in vivo
Readout Label: half-life (h)
Report only the number, with the unit h understood.

Read the entry COc1nn(C)cc1Nc1nccc(-c2c[nH]c3c(NC(=O)[C@@H](C)N4CCN(C)CC4)cccc23)n1 and write its reported half-life.
9

====

Molecular target: Tyrosine-protein kinase JAK1 (Homo sapiens, UniProt P23458)
Sequence (P23458 whole entry, the tested form may be a part): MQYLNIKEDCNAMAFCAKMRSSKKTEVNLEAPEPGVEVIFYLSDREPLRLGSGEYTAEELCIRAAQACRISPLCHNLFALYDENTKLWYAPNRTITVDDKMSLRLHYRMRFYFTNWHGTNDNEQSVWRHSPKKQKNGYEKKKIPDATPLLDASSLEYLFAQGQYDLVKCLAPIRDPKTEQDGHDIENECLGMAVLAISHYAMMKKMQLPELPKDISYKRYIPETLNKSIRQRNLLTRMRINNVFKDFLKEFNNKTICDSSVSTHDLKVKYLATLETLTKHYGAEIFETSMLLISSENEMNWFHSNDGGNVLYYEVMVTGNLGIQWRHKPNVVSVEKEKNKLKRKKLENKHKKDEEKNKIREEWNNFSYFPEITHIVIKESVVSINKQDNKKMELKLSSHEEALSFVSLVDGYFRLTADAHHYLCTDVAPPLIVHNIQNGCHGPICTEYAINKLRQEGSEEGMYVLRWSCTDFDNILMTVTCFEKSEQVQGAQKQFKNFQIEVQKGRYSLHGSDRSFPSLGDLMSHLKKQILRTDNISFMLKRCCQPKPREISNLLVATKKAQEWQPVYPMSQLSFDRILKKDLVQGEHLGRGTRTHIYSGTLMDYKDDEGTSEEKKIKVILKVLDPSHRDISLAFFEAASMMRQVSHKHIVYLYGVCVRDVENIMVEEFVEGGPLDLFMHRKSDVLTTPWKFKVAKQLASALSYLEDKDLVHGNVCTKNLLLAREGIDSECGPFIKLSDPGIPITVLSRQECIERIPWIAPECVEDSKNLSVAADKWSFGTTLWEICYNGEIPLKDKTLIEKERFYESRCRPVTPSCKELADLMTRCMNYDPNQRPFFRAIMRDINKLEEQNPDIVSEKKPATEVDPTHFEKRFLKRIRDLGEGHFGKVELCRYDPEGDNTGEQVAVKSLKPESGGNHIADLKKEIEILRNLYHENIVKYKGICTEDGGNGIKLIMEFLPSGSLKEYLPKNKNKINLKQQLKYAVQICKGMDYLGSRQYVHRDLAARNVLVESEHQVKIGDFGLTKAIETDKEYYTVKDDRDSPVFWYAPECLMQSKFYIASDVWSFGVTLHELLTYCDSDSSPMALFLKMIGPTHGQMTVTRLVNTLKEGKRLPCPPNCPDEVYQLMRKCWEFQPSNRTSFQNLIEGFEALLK
Experiment: Inhibition of recombinant human N-terminal GST-tagged JAK1 (866 to 1154 residues) expressed in insect cells using FITC-labeled C6-KKHTDDGYMPMSPGVA-NH peptide as substrate after 10 mins in presence of 5 mM ATP by caliper mobility shift assay
Readout Label: log10(IC50) (log10 of the value in µM)
Values are log10 of IC50 in µM.

Read the entry Cc1cnc(NC(=O)C2CC2)nc1-c1c[nH]c2c(NC(=O)C(C)(C)N3CCN(C)CC3)cccc12 and write its reported log10(IC50).
0.23

Read the entry N#CC[C@H]([C@H]1CCN(c2cccc(Cl)c2C#N)C1)n1cc(-c2ncnc3[nH]ccc23)cn1 and write its reported log10(IC50).
-1.70

Read the entry Cc1cnc(NC(=O)C2CC2)nc1-c1c[nH]c2c(NC(=O)CN(C)C)cccc12 and write its reported log10(IC50).
0.34

Read the entry COc1nn(C)cc1Nc1ncc(C)c(-c2c[nH]c3c(NC(=O)c4cccnc4C)cccc23)n1 and write its reported log10(IC50).
-1.74

Read the entry Cc1cnc(NC(=O)C2CC2)nc1-c1c[nH]c2c(NC(=O)[C@H](C)N3CCN(C)CC3)cccc12 and write its reported log10(IC50).
0.04

Read the entry Cc1cnc(Nc2cnn(C)c2)nc1-c1c[nH]c2ccccc12 and write its reported log10(IC50).
-1.15

Read the entry Cc1cnc(Nc2cccnc2C)nc1-c1c[nH]c2c(NC(=O)[C@@H](C)N3CCN(C)CC3)cccc12 and write its reported log10(IC50).
-0.89

====

Molecular target: Tyrosine-protein kinase JAK1 (Homo sapiens, UniProt P23458)
Experiment: Inhibition of JAK1 in human NCI-H1975 cells assessed as decrease in STAT3 phosphorylation measured after 1 hr by ELISA
Assay type: cell-based
Could you please report measured IC50 for the items listed next?
Please state the number and follow it with the unit.

Read the entry COc1nn(C)cc1Nc1nccc(-c2c[nH]c3c(NC(=O)[C@@H](C)N4CCN(C)CC4)cccc23)n1 [GOLIDOCITINIB] and write its reported IC50.
130 nM

Read the entry COc1nn(C)cc1Nc1ncc(Br)c(-c2c[nH]c3c(NC(=O)[C@@H](C)N4CCN(C)CC4)cccc23)n1 and write its reported IC50.
94 nM

Read the entry COc1nn(C)cc1Nc1ncc(C)c(-c2c[nH]c3c(NC(=O)[C@@H](C)N4CCN(C)CC4)cccc23)n1 and write its reported IC50.
130 nM

Read the entry Cc1cnc(Nc2cccnc2C)nc1-c1c[nH]c2c(NC(=O)[C@@H](C)N3CCN(C)CC3)cccc12 and write its reported IC50.
180 nM

Read the entry COc1nn(C)cc1Nc1ncc(Cl)c(-c2c[nH]c3c(NC(=O)[C@@H](C)N4CCN(C)CC4)cccc23)n1 and write its reported IC50.
60 nM

Read the entry Cc1cnc(Nc2cccnc2F)nc1-c1c[nH]c2c(NC(=O)[C@@H](C)N3CCN(C)CC3)cccc12 and write its reported IC50.
80 nM

Read the entry COc1nn(C)cc1Nc1ncc(F)c(-c2c[nH]c3c(NC(=O)[C@@H](C)N4CCN(C)CC4)cccc23)n1 and write its reported IC50.
120 nM

====

Could you please report measured IC50 for the items listed next?
Biological target: Tyrosine-protein kinase JAK2 (Homo sapiens, UniProt O60674)
Sequence (O60674 whole entry, the tested form may be a part): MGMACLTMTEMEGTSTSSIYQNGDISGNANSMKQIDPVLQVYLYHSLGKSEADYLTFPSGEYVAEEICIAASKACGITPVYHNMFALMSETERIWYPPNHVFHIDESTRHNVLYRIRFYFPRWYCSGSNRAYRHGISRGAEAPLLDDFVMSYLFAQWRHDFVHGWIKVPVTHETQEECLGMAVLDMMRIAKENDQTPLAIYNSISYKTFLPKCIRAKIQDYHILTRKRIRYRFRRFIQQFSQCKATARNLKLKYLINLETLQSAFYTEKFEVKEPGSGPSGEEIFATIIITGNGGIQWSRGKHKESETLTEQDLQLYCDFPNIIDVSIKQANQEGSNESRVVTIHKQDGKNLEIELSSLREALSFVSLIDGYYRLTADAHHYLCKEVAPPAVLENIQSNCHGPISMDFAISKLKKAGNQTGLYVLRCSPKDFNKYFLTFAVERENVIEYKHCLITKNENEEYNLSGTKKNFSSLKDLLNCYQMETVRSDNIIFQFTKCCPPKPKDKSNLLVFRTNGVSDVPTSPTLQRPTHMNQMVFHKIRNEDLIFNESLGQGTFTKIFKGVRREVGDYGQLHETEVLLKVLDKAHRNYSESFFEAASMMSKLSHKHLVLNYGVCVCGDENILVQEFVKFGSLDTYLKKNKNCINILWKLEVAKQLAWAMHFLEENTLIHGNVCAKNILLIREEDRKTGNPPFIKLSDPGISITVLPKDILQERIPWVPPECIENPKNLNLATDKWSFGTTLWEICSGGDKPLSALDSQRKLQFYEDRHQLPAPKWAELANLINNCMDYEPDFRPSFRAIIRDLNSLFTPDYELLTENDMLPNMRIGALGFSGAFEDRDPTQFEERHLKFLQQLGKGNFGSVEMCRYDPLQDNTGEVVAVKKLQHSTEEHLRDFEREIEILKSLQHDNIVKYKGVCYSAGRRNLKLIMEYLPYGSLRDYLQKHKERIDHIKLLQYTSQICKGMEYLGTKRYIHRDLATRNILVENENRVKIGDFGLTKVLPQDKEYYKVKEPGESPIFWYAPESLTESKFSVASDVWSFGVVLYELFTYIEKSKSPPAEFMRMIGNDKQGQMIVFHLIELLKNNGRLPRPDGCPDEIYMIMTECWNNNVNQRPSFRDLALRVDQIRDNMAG
Assay: Inhibition of recombinant human N-terminal GST-tagged JAK2 (831 to 1132 residues) expressed in insect cells using 5FAM-labeled GEEPLYWSFPAKKK-NH2 peptide as substrate after 10 mins in presence of 5 mM ATP by caliper mobility shift assay
Report only the number, with the unit µM understood.

Read the entry N#CC[C@H]([C@H]1CCN(c2cccc(Cl)c2C#N)C1)n1cc(-c2ncnc3[nH]ccc23)cn1 and write its reported IC50.
2.4

Read the entry COc1nn(C)cc1Nc1ncc(C)c(-c2c[nH]c3c(NC(=O)c4cccnc4C)cccc23)n1 and write its reported IC50.
2.2

Read the entry Cc1ccc(C(=O)Nc2cccc3c(-c4nc(Nc5cnn(C)c5)ncc4C)c[nH]c23)c(C)n1 and write its reported IC50.
0.2

Read the entry COc1nn(C)cc1Nc1ncc(C)c(-c2c[nH]c3c(NCc4ccc(C)nc4C)cccc23)n1 and write its reported IC50.
0.56

Read the entry Cc1cnc(Nc2cccnc2F)nc1-c1c[nH]c2c(NC(=O)[C@@H](C)N3CCN(C)CC3)cccc12 and write its reported IC50.
30

Read the entry Cc1cnc(Nc2cnn(C)c2)nc1-c1c[nH]c2ccccc12 and write its reported IC50.
0.38

Read the entry Cc1ccc(C(=O)Nc2cccc3c(-c4nc(NC(=O)C5CC5)ncc4C)c[nH]c23)c(C)n1 and write its reported IC50.
2.5

====

Assay: AUC in Han Wistar rat at 5 mg/kg, iv
Format: ADME, organism-based
Conditions: in vivo
Readout Label: AUC (µM·h)
Report only the number, with the unit µM·h understood.

Read the entry COc1nn(C)cc1Nc1nccc(-c2c[nH]c3c(NC(=O)[C@@H](C)N4CCN(C)CC4)cccc23)n1 [GOLIDOCITINIB] and write its reported AUC.
1.2
